Recorded values, source patent US7648979B2.

Biological target: histamine 3 receptor (H3R) (Homo sapiens, UniProt Q9Y5N1)
Sequence (Q9Y5N1 whole entry): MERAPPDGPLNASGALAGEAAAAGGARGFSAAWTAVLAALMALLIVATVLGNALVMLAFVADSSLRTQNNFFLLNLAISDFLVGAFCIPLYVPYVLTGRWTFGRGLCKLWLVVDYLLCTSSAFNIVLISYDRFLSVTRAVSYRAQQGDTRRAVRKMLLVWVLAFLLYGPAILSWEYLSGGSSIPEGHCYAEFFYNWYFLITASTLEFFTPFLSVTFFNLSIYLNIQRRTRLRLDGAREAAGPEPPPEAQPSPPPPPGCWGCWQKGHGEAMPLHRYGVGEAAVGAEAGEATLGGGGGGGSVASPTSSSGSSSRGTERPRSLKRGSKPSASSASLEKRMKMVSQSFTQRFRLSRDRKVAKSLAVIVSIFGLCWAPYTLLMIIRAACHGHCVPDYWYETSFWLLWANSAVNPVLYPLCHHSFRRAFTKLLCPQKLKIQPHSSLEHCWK
test_readout: pKi
In plain terms, pKi is the concentration in mol/L turned into minus its base-10 logarithm.

Record CC(C)N1CCN(C(=O)c2ccc3c(c2)cc(C(=O)N2CCN(S(=O)(=O)c4ccccc4)CC2)n3-c2ccnc(Cl)c2)CC1 : what is its pKi with histamine 3 receptor (H3R) (Homo sapiens, UniProt Q9Y5N1)?
8.24
